The origin of these recorded values is ChEMBL document CHEMBL4689842.

Collected Population Healthy Nuclei (%) values appear next to each entry.
Tested on: U2OS
assay name: Multiplex assay against U2OS
Type: toxicity, cell-based
condition set: human, 48 h, 1 µM, compound concentration 1 uM, replicate 1
Respond with the figure and its unit, in that order.

Ask | Provide measured Population Healthy Nuclei (%) value, entry: CCOC(=O)c1c(C)[nH]c2ccc3c(c12)CN1CCc2cc(OC)ccc2C1O3 (centres undefined)
Reply | 83%

Ask | Provide measured Population Healthy Nuclei (%) value, entry: C=C1/C(=C\C=C2/CCC[C@]3(C)[C@@H]([C@H](C)/C=C/[C@H](C)C(C)C)CC[C@@H]23)C[C@@H](O)C[C@@H]1O
Reply | 89%

Ask | Provide measured Population Healthy Nuclei (%) value, entry: CN(C)C(=O)C(CCN1CCC(O)(c2ccc(Cl)cc2)CC1)(c1ccccc1)c1ccccc1.Cl [LOPERAMIDE HYDROCHLORIDE]
Reply | 78%

---
Ask | Provide measured Population Healthy Nuclei (%) value, entry: CCCS(=O)(=O)c1nc(NC2CC2)cc(-c2ccc3c(ccn3C3CC(C)(C)NC(C)(C)C3)c2)n1
Reply | 69%
